- protocol: Therapeutic index (ratio of CC50 and IC50) was determined
- Format: cell-based
- recordedConditions: human, HeLa cells; read-out: TI
experimentalEndpoint: selectivity ratio

Worked cases, selectivity ratio given:
> print(dat)
                               linenotation  reading
1  Nc1nn2c(O)cc(-c3ccc(F)cc3)nc2c1[N+](=O)[O-]      > 2
2  Nc1nn2c(O)cc(-c3cc([N+](=O)[O-])c(Cl)cc3Cl)nc2c1[N+](=O)[O-]   > 25.6
3  Nc1nn2c(O)cc(CNNc3ccc(F)cc3)nc2c1[N+](=O)[O-]   > 17.2

// selectivity ratio value for `COc1ccc(NNCc2cc(O)n3nc(N)c([N+](=O)[O-])c3n2)cc1` : 3.8

The compound listed as `Nc1nn2c(O)cc(-c3ccccc3F)nc2c1[N+](=O)[O-]` shows selectivity ratio equal to 3.2

Recorded selectivity ratio (compound `Nc1nn2c(O)cc(-c3ccccc3)nc2c1[N+](=O)[O-]` ): > 3.4

###

- protocol: Cytotoxic concentration against human cervix carcinoma cells
Measured CC50, listed per entry.

Notebook: `NNCc1cc(O)n2nc(N)c([N+](=O)[O-])c2n1` , CC50 read as 42.6 µg/mL

###

- protocol: Partition coefficient (logP)
- Assay type: physicochemical
- recordedConditions: octanol/water
# logP per record follows
Answer with the value's number alone.

> print(dat)
                               linenotation  experimentalendpoint  reading
1  Nc1nn2c(O)cc(-c3ccccc3)nc2c1[N+](=O)[O-]                  logP     2.54
2  Nc1nn2c(O)cc(-c3ccc(F)cc3)nc2c1[N+](=O)[O-]                  logP     2.34
3  Nc1nn2c(O)cc(-c3ccccc3F)nc2c1[N+](=O)[O-]                  logP     2.34
4  Nc1nn2c(O)cc(CN3CCN(C(c4ccccc4)c4ccccc4)CC3)nc2c1[N+](=O)[O-]                  logP     3.73
5  CCN(CC)C(=S)SCc1cc(O)n2nc(N)c([N+](=O)[O-])c2n1                  logP     3.06
6      NNCc1cc(O)n2nc(N)c([N+](=O)[O-])c2n1                  logP     0.42
7  COc1ccc(NNCc2cc(O)n3nc(N)c([N+](=O)[O-])c3n2)cc1                  logP     2.46
8  Nc1nn2c(O)cc(-c3cc([N+](=O)[O-])c(Cl)cc3Cl)nc2c1[N+](=O)[O-]                  logP     2.77

Alright, here's another compound for you.
response.value for `Nc1nn2c(O)cc(CNNc3ccc(F)cc3)nc2c1[N+](=O)[O-]` (field: logP) = 2.65

###

Recorded CC50, one value per entry.
- protocol: Cytotoxic concentration against human cervix carcinoma cells

`Nc1nn2c(O)cc(-c3cc([N+](=O)[O-])c(Cl)cc3Cl)nc2c1[N+](=O)[O-]` has a reported CC50 of > 100 µg/mL

The measured CC50 associated with CCSC(N)NCc1cc(O)n2nc(N)c([N+](=O)[O-])c2n1 (configuration not stated) reads > 50 µg/mL

The compound identified as `Nc1nn2c(O)cc(CNCCO)nc2c1[N+](=O)[O-]` registered its CC50 at > 50 µg/mL

Provenance of the data: ChEMBL document CHEMBL1145228
